B1: library; numbered along this chain (parent)
chain: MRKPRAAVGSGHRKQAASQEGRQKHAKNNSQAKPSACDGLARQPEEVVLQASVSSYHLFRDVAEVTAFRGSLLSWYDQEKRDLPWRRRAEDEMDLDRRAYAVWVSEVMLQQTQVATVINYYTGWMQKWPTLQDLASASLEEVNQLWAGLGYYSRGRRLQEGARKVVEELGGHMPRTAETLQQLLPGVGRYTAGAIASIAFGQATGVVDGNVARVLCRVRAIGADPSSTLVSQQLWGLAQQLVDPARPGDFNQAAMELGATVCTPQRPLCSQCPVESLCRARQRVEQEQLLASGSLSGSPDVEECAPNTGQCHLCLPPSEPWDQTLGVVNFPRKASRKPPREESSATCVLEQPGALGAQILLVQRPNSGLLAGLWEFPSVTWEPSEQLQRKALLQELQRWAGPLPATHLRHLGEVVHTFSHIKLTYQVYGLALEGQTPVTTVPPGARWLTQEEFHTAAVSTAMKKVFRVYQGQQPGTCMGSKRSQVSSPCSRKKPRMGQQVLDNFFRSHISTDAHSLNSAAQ

Variants of: B1
Experiment: 8OG:A repair function score (normalized; synonymous = 0, nonsense = -1) (normalized log-likelihood score); higher = more repair activity (WT-like);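 further: cells sorted at 72 h after reporter transfection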
Conditions: with 8OG:A DNA repair reporter (GFP) in HEK-293 MUTYH KO cells
Rule: true (1) for 8OG:A repair function score not less than -0.09, false (0) for anything less.

>>> category("C262G")
"false (0)"
>>> category("G368Q")
"false (0)"
>>> category("L158R")
"false (0)"
>>> category("A101M")
"true (1)"

In plain terms: is recorded 8OG:A repair function score at least -0.09 for P443G ?
true (1)

Also, S71P please.
true (1)

Also, T66L please.
true (1)

Also, S378A please.
false (0)

Also, R495G please.
true (1)
